- assay_details: Displacement of 2-[I]iodomelatonin from human melatonin MT2 receptor after 120 mins
assay_readout: pKi
Interpret pKi as the negative base-10 log of the concentration measured in mol/L.

The value of pKi measured for the compound CC(=O)NCCc1coc2cc(C(=O)c3ccccc3)c3c(c12)CCCO3 turned out to be 7.40

Given item COc1cccc(C(=O)c2oc3ccc4c(c3c2CCNC(C)=O)CCCO4)c1 , the value recorded as its pKi is 9.08

For this compound ( COc1ccccc1C(=O)c1oc2ccc3c(c2c1CCNC(C)=O)CCCO3 ), measured pKi is 7.89

Lab note: measured pKi of CC(=O)NCCc1coc2cc(Cc3cccc(C(F)(F)F)c3)c3c(c12)CCCO3 was 7.89

// sample COc1ccc(C(=O)c2oc3ccc4c(c3c2CCNC(C)=O)CCCO4)cc1 , its pKi was 8.57

Quick note, pKi for C=CCc1oc2ccc3c(c2c1CCNC(C)=O)CCCO3 landed at 9.92

====

- assay_details: Displacement of 2-[I]iodomelatonin from human melatonin MT1 receptor after 120 mins
assay_readout: pKi
In textbook form, pKi equals minus log to base ten of the concentration in mol/L.

CCCNC(=O)NCCc1coc2ccc3c(c12)CCCO3 yielded pKi of 8.89

# pKi of CCCCNC(=O)NCCc1coc2ccc3c(c12)CCCO3 = 7.30

# pKi of CC(=O)NCCc1c(-c2ccccc2)oc2ccc3c(c12)CCCO3 = 10.40

For this molecule ( CCCCNC(=S)NCCc1coc2ccc3c(c12)CCCO3 ), measured pKi is 7.64

What the record says about C=CCc1oc2ccc3c(c2c1CCNC(C)=O)CCCO3 : pKi is 10.52

pKi in this record for CC(=O)NCCc1coc2cc(C(=O)c3cccc(C(F)(F)F)c3)c3c(c12)CCCO3 : 7.47

The reported value for C=CCC(=O)NCCc1coc2ccc3c(c12)CCCO3 in terms of pKi is 10.15

Measured pKi, COc1cccc(C(=O)c2oc3ccc4c(c3c2CCNC(C)=O)CCCO4)c1 : 6.89

Entry under test: CC(=O)NCCc1c(C(=O)c2cccc(C(F)(F)F)c2)oc2ccc3c(c12)CCCO3 . Its pKi was 6.49

Item: CC(=O)NCCc1c(-c2cccc(CO)c2)oc2ccc3c(c12)CCCO3 | pKi: 8.66

Data point: S=C(NCCc1coc2ccc3c(c12)CCCO3)NC1CC1 ; pKi = 8.25

Please fill in: pKi reported for COc1ccc(C(=O)c2oc3ccc4c(c3c2CCNC(C)=O)CCCO4)cc1 = 6.98

Reported pKi of C=CC(=O)NCCc1coc2ccc3c(c12)CCCO3 : 9.96

Measured pKi of O=C(CI)NCCc1coc2ccc3c(c12)CCCO3 : 10.15

Kindly note the recorded pKi for COc1cccc(C(=O)c2cc3occ(CCNC(C)=O)c3c3c2OCCC3)c1 , which is 7.46

Measured pKi, CC(=O)NCCc1coc2cc(Cc3cccc(C(F)(F)F)c3)c3c(c12)CCCO3 : 8.05

Data point: CC(=O)NCCc1c(-c2cccc(O)c2)oc2ccc3c(c12)CCCO3 ; pKi = 9.06

Entry CC(=O)NCCc1coc2cc(C(=O)c3ccccc3)c3c(c12)CCCO3 — recorded pKi = 7.36

For record C=Cc1oc2ccc3c(c2c1CCNC(C)=O)CCCO3 the listed pKi is 10.30

Record summary for CC(=O)NCCc1coc2ccc3c(c12)CCCO3 : reported pKi = 9.51

GET /value?item= COc1ccc(C(=O)c2cc3occ(CCNC(C)=O)c3c3c2OCCC3)cc1 &field=pKi returns 5.27

response.value for COc1ccc2[nH]cc(CCNC(C)=O)c2c1 (field: pKi) = 9.64

Quick note, pKi for CCCC(=O)c1oc2ccc3c(c2c1CCNC(C)=O)CCCO3 landed at 9.01

====

Exercise: state measured pKi for each of the compounds provided.
- assay_details: Displacement of 2-[I]iodomelatonin from human melatonin MT2 receptor after 120 mins
Please treat pKi as minus the base-10 logarithm of the molar concentration.

Query CCCNC(=O)NCCc1coc2ccc3c(c12)CCCO3 yields pKi of 9.13

Recorded result, CC(=O)NCCc1coc2ccc3c(c12)CCCO3 , pKi: 9.23

// recorded pKi for CC(=O)NCCc1c(-c2cccc(CO)c2)oc2ccc3c(c12)CCCO3 : 9.17

Origin of measurements: ChEMBL document CHEMBL3102695
